experiment: Racecadotril and degradation products over time in Acetate and Citrate at pH 3.6, 4.0, 4.5 (untitled table); type: physicochemical; conditions: Citrate, pH 3.6, 2 week
assay_readout: Thiorphan (%)
Please state the figure in %; there is no need to write the unit.

Given the molecule CC(=O)SCC(Cc1ccccc1)C(=O)NCC(=O)OCc1ccccc1 (racemic) , write its reported Thiorphan.
0.13

* * *

assay: Racecadotril and degradation products over time in Acetate and Citrate at pH 3.6, 4.0, 4.5 (untitled table); assay type: physicochemical; conditions: Citrate, pH 4.0, 1 week
assay_readout: Benz Alcohol (%)
Answer format: numeric, % implied, no suffix.

In one line, give reported Benz Alcohol of the entry CC(=O)SCC(Cc1ccccc1)C(=O)NCC(=O)OCc1ccccc1 (racemic) .
0.89

Each recorded value in this set is attributed to patent US20140271831A1.
